- experiment-notes: In vitro cytotoxicity, MTT assay
- Type: cell-based
- experimental-setup: African green monkey; Vero cells, MTT, 48 h; read-out: CC50
- Experimental: The toxicity of D. bulbifera extracts and isolated compounds was assessed by 3-(4,5-dimethythiazol-2-yl)-2,5-diphenyl tetrazolium bromide (MTT) assay according to a previous method. Briefly, Vero cells (Elabscience, Wuhan, Hubei, China) were seeded into 96-well plates at a density of 10^4 cell/ml and incubated for 24 h at 37 °C with 5% CO2. […] Finally, the optical density was determined at a wavelength of 590 nm using a microplate reader. […]
Exercise: state measured CC50 at 48 h for each of the compounds provided.

Provide CC50 at 48 h for all items below, preserving their order.
1. COc1cccc2c1C(=O)c1c(O)c3c(c(O)c1C2=O)C[C@@](O)(C(=O)CO)C[C@@H]3O[C@H]1C[C@H](N)[C@H](O)[C@H](C)O1 [Doxorubicin, reference compound]
2. O=c1c(O[C@@H]2O[C@H](CO)[C@@H](O)[C@H](O)[C@H]2O)c(-c2ccc(O)c(O)c2)oc2cc(O)cc(O)c12 [Compound 13, quercetin-3-O-β-D-glucopyranoside]
3. CC(=O)OC1CC2C(=O)OC(c3ccoc3)CC2(C)C2CC3CC(C(=O)O3)C12 (stereo not shown) [Compound 1, 8-epidiosbulbin E acetate]
4. NC(=O)NC1NC(=O)NC1=O (stereo not shown) [Compound 8, allantoin]

["1.96 µM", "> 80 µM", "> 80 µM", "> 80 µM"]
